Tested on: ENR+CD organoids
procedureText: Primary screen: ATP (CellTiter-Glo 3D, CTG) cell number/viability, 2.5-D 384-well ENR+CD organoids;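 also: compounds given at plating and again on day 3 over a 6-day differentiation from ENR+CV stem-cell-enriched precursors, ATP measured on day 6, plate median as control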
conditionSet: primary screen, dose 0.40 uM, FC relative to plate median
measurementKind: Dose.FC.CTG (log2 fold change)
Please state the figure in log2 fold change; there is no need to write the unit.

The examples below pair each entry with its known result.
COc1cc(OC)c(/C=C/S(=O)(=O)Cc2ccc(OC)c(NCC(=O)O)c2)c(OC)c1: −1.285
COc1ccc(C(=O)Nc2sc3c(c2C(N)=O)CCCC3)cc1OC: 0.250
CCOC(=O)c1ccc(N2NC(=O)/C(=C/c3ccc([N+](=O)[O-])o3)C2=O)cc1: 0.319
Cl.NC(=O)c1cnc(N[C@@H]2CCCC[C@@H]2N)nc1Nc1cccc(-n2nccn2)c1 [PRT062607 (P505-15, BIIB057) HCl]: 0.080
NC(=O)c1ccc(-c2nc(-c3ccccn3)c(-c3ccc4c(c3)OCO4)[nH]2)cc1: 0.473

GET /values?readout=Dose.FC.CTG&item= CC(C)N(CCCNC(=O)Nc1ccc(C(C)(C)C)cc1)C[C@H]1O[C@@H](n2cc(Br)c3c(N)ncnc32)[C@H](O)[C@@H]1O −0.122

Note, next up: Cc1ccc(-n2nccn2)c(C(=O)N2CCN(c3nc4cc(Cl)ccc4o3)CC[C@H]2C)c1 0.255

Entry Oc1ccc(Nc2nc(-c3ccc(Cl)cc3)cs2)cc1 please 0.222

Sourced from patent US20220323406A1
